- procedureDetails: Selectivity index, ratio of CC50 for mock-infected human MT4 cells to EC50 for HIV1 RES056 RES056 containing reverse transcriptase K103N + Y181C mutant infected in human MT4 cells
- Format: toxicity, cell-based
- conditionContext: read-out: Selectivity Index
quantityKind: selectivity ratio

Problem: Output selectivity ratio of N#Cc1cc(Cl)cc(Oc2c(C(F)(F)F)ccn(CC(=O)Nc3ncn[nH]3)c2=O)c1
Solution: > 1450

Problem: Output selectivity ratio of N#Cc1cc(Cl)cc(Oc2c(C(F)(F)F)ccn(CC(=O)Nc3ccn[nH]3)c2=O)c1
Solution: 1

Problem: Output selectivity ratio of N#Cc1cc(Cl)cc(Oc2c(C(F)(F)F)ccn(CC(=O)Nc3cnccn3)c2=O)c1
Solution: 1

Problem: Output selectivity ratio of N#Cc1cc(Cl)cc(Oc2c(C(F)(F)F)ccn(CC(=O)Nc3ccc(C(F)(F)F)cc3)c2=O)c1
Solution: < 1

Problem: Output selectivity ratio of N#Cc1cc(Cl)cc(Oc2c(C(F)(F)F)ccn(CC(=O)Nc3ccc(F)cc3)c2=O)c1
Solution: 1

Problem: Output selectivity ratio of N#Cc1cc(Cl)cc(Oc2c(C(F)(F)F)ccn(CC(=O)Nc3cccnc3)c2=O)c1
Solution: < 1

Problem: Output selectivity ratio of CS(=O)(=O)c1ccc(NC(=O)Cn2ccc(C(F)(F)F)c(Oc3cc(Cl)cc(C#N)c3)c2=O)cc1
Solution: < 1

Problem: Output selectivity ratio of Cn1c(Cn2ccc(C(F)(F)F)c(Oc3cc(Cl)cc(C#N)c3)c2=O)nn(COP(=O)(O)O)c1=O
Solution: 1

Problem: Output selectivity ratio of CC(C)OC(=O)OCn1nc(Cn2ccc(C(F)(F)F)c(Oc3cc(Cl)cc(C#N)c3)c2=O)n(C)c1=O
Solution: 1
